System Tested: LRRK2 G2019S (Homo sapiens, UniProt Q5S007, G2019S)
Sequence (Q5S007 whole entry G2019S): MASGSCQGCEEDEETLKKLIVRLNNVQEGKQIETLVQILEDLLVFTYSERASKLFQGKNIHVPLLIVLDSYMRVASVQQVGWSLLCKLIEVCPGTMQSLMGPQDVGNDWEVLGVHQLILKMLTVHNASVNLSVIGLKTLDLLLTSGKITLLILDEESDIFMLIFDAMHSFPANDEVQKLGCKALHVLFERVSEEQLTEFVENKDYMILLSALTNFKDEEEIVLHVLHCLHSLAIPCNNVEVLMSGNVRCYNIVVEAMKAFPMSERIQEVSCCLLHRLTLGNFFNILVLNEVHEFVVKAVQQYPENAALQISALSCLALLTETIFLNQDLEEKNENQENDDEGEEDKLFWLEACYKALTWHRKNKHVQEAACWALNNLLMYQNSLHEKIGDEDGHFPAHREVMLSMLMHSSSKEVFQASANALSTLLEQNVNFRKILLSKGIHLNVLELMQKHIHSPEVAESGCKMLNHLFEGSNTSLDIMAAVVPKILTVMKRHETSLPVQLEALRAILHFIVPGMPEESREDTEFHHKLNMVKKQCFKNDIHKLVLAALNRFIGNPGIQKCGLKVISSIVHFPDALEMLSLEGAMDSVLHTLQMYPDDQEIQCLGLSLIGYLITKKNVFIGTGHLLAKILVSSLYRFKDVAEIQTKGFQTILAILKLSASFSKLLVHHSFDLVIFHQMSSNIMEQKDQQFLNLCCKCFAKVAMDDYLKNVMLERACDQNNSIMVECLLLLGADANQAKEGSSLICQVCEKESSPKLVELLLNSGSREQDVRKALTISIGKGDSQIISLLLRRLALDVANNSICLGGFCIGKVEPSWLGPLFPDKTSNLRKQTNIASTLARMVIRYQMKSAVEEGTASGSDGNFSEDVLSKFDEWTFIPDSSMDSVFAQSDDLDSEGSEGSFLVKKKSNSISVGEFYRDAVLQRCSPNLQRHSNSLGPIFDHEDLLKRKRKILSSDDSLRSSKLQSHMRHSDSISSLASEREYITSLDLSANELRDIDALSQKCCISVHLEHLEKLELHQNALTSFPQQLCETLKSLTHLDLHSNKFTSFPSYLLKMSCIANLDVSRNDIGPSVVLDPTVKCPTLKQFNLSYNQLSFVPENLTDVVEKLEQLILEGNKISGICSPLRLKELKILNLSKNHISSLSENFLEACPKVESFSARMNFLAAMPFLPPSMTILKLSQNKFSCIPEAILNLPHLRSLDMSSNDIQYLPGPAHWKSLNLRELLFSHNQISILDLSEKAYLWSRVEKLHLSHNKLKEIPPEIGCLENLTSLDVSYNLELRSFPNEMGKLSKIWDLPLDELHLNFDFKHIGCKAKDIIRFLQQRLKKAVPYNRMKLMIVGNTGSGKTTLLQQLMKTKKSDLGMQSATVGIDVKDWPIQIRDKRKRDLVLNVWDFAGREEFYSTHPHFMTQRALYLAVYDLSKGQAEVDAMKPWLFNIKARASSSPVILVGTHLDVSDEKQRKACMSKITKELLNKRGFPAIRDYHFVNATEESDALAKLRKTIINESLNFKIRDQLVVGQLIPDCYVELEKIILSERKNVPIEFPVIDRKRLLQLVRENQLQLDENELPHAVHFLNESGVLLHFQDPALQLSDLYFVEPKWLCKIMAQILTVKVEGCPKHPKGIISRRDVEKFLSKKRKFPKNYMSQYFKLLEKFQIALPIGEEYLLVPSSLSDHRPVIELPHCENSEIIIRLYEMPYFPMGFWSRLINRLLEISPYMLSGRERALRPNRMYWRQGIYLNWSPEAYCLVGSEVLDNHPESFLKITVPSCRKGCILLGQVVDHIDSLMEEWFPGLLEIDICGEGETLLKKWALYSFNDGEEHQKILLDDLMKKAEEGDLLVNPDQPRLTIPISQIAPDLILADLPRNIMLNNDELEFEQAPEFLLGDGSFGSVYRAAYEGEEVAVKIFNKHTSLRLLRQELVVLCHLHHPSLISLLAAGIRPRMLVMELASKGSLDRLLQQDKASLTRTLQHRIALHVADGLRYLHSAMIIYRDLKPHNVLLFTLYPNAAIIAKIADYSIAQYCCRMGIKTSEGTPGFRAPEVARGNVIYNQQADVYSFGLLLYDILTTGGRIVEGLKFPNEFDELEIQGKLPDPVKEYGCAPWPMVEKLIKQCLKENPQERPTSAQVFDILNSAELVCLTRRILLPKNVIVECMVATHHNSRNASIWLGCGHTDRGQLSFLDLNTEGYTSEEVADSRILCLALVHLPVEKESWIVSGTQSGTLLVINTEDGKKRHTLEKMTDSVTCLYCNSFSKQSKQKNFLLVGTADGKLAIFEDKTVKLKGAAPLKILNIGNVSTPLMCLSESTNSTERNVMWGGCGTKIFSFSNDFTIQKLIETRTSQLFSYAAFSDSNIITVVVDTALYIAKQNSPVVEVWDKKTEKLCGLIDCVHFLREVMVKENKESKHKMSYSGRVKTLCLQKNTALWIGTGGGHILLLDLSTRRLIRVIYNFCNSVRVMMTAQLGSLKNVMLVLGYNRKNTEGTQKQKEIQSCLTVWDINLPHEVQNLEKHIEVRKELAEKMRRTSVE
Protocol Notes: LRRK2 G2019S Km ATP LanthaScreen assay
Format: biochemical
Measurement Context: read-out: LRRK2 pIC50 (converted)
Property Name: IC50 (nM)

>  <Compound>
CCOC1CC2(C1)CC2C(=O)Nc1cc2cc(C3CCN(C4(C)COCC4O)CC3)c(Cl)cc2cn1 (single isomer, unassigned) [Ex-4.31]

>  <System Tested>
LRRK2 G2019S (Homo sapiens, UniProt Q5S007, G2019S)

>  <Property Name>
IC50

>  <Endpoint Value>
5.62

$$$$
>  <Compound>
CCC1C(C(=O)Nc2cc3cc(C4(C#N)CC45CC5)ccc3cn2)C1c1cnn(C)c1 (single isomer, unassigned) [Ex-1.25]

>  <System Tested>
LRRK2 G2019S (Homo sapiens, UniProt Q5S007, G2019S)

>  <Property Name>
IC50

>  <Endpoint Value>
0.661

$$$$
>  <Compound>
CC1(N2CCC(c3cc4cc(NC(=O)C5C6CCOCC65)ncc4cc3Cl)CC2)COCC1F (single isomer, unassigned) [Ex-6.40]

>  <System Tested>
LRRK2 G2019S (Homo sapiens, UniProt Q5S007, G2019S)

>  <Property Name>
IC50

>  <Endpoint Value>
0.0813

$$$$
>  <Compound>
O=C(Nc1cc2cc(C3CCC(N4CC(F)C4)CC3)c(Cl)cc2cn1)C1CC12CCOCC2 (single isomer, unassigned) [Ex-11.6]

>  <System Tested>
LRRK2 G2019S (Homo sapiens, UniProt Q5S007, G2019S)

>  <Property Name>
IC50

>  <Endpoint Value>
3.8

$$$$
>  <Compound>
Cc1cc2cnc(NC(=O)C3CC3C(F)F)cc2cc1C1CCN(C2(C)COCC2O)CC1 (centres unmarked) [Ex-2.55]

>  <System Tested>
LRRK2 G2019S (Homo sapiens, UniProt Q5S007, G2019S)

>  <Property Name>
IC50

>  <Endpoint Value>
3.98

$$$$
>  <Compound>
N#CC1(c2ccc3cnc(NC(=O)Cc4cccnc4)cc3c2)CC12CC2 (single isomer, unassigned) [Ex-1.41]

>  <System Tested>
LRRK2 G2019S (Homo sapiens, UniProt Q5S007, G2019S)

>  <Property Name>
IC50

>  <Endpoint Value>
0.708

$$$$
>  <Compound>
CC1(C)COCC1(C)N1CCC(c2cc3cc(NC(=O)C4CC45CCOCC5)ncc3cc2Cl)CC1 (single isomer, unassigned) [Ex-6.19]

>  <System Tested>
LRRK2 G2019S (Homo sapiens, UniProt Q5S007, G2019S)

>  <Property Name>
IC50

>  <Endpoint Value>
39.8

$$$$
>  <Compound>
CC1(N2CCC(c3cc4cc(NC(=O)C5CC56CC6)ncc4cc3Cl)CC2)COCC1O (single isomer, unassigned) [Ex-4.5]

>  <System Tested>
LRRK2 G2019S (Homo sapiens, UniProt Q5S007, G2019S)

>  <Property Name>
IC50

>  <Endpoint Value>
0.0813

$$$$
>  <Compound>
Cn1cc(C2CC2C(=O)Nc2cc3cc(C4(C#N)CC45CC5)ccc3cn2)cn1 (single isomer, unassigned) [Ex-1.24]

>  <System Tested>
LRRK2 G2019S (Homo sapiens, UniProt Q5S007, G2019S)

>  <Property Name>
IC50

>  <Endpoint Value>
0.0813

$$$$
>  <Compound>
CC(C)(O)C1CC1C(=O)Nc1cc2cc(C3CCN(C4(C)COCC4O)CC3)c(Cl)cc2cn1 (single isomer, unassigned) [Ex-4.10]

>  <System Tested>
LRRK2 G2019S (Homo sapiens, UniProt Q5S007, G2019S)

>  <Property Name>
IC50

>  <Endpoint Value>
0.0813

$$$$

(I) COCC(C)c1cc2cc(NC(=O)C3CC34CCOCC4)ncc2cc1Cl (single isomer, unassigned) [Ex-9.12]
(II) CC1(C)CCC(C(=O)Nc2cc3cc(C4CCC(N5CCC(F)C5)CC4)c(Cl)cc3cn2)CO1 (single isomer, unassigned) [Ex-5.24]
-- ask Select the item with the higher value of IC50 from the options I and II listed. Identify your pick by its label.
-- reply II

(I) N#CC1(c2ccc3cnc(NC(=O)C4CC(OC(F)F)C4)cc3c2)CC12CC2 (single isomer, unassigned) [Ex-2.5]
(II) Cc1cc2cnc(NC(=O)C3CCOC(C)(C)C3)cc2cc1C1CCN(C2(C)COCC2O)CC1 (centres unmarked) [Ex-2.49]
-- ask Select the item with the higher value of IC50 from the options I and II listed. Identify your pick by its label.
-- reply I
